pIC50: −log10 of the molar value.
Observed pIC50 for UniProt P00915, reported per entry below.
Sequence (P00915 whole entry): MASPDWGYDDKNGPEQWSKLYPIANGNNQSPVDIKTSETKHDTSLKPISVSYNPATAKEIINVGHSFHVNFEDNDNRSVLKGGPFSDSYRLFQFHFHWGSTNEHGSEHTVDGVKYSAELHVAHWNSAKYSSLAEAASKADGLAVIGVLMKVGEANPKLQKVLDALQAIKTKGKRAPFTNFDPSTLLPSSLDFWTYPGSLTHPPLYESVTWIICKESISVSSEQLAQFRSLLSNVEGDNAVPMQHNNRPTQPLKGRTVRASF

>  <COMPOUND>
C=C[C@]12CC[C@]3(C)[C@@H](F)[C@H](OC(=O)c4ccccc4)C[C@H]3[C@@H]1CCc1cc(O)ccc12 [reference compound]

>  <LIMIT_QUALIFIER>
<

>  <pIC50>
5.00

$$$$
>  <COMPOUND>
C=C[C@]12CC[C@]3(C)[C@@H](F)[C@H](OC(=O)c4cccc(S(N)(=O)=O)c4)C[C@H]3[C@@H]1CCc1cc(O)ccc12

>  <LIMIT_QUALIFIER>
=

>  <pIC50>
5.43

$$$$
>  <COMPOUND>
C=C[C@]12CC[C@]3(C)C[C@H](OC(=O)c4cccc(S(N)(=O)=O)c4)C[C@H]3[C@@H]1CCc1cc(O)ccc12

>  <LIMIT_QUALIFIER>
=

>  <pIC50>
5.47

$$$$
>  <COMPOUND>
C[C@]12CC[C@@H]3c4ccc(OS(N)(=O)=O)cc4CC[C@H]3[C@@H]1CC[C@@H]2O [Oestradiol 3-sulphamate, reference compound]

>  <LIMIT_QUALIFIER>
=

>  <pIC50>
6.80

$$$$
